Tested on: early life stage zebrafish (Danio rerio) embryos
Assay: Developmental toxicity morphology screen, sealed rotating vial exposure
Assay type: in vivo
Settings: Fig. 2 heatmap; nominal concentration, exposure 6-24 hpf in vials, summary of all endpoints
outcomeMeasure: BMC50 Any effect (µM)

- CC(C)(C)c1ccc2ccc(C(C)(C)C)cc2c1: 24.7
- Cc1ccc2c(C)cccc2c1: 34.6
- Cc1cc2cccc(C)c2cc1C: 21.4
- Cc1ccc2cccc(C)c2c1: 20.1
- Cc1cc2c(C)ccc(C)c2cc1C: 20.5

====

Recorded bmd, MO24 by entry
System: early life stage zebrafish (Danio rerio) embryos
Assay: Developmental toxicity morphology screen, sealed rotating vial exposure
Type: in vivo
Parameters: unit not given here
Details: benchmark dose; endpoint MO24
outcomeMeasure: bmd, MO24

* Cc1cc2c(C)ccc(C)c2cc1C | 35.4057
* Cc1ccc2c(C)cccc2c1 | 46.5621
* CCc1ccc2cc(CC)ccc2c1 | 38.0576
* Cc1cc(C)c2c(C)cccc2c1 | 25.7458
* Cc1ccc(C)c2c(C)cccc12 | 27.7283
* Cc1cc2cccc(C)c2cc1C | 38.9242
* Cc1ccc(C)c2ccccc12 | 30.4433
* Cc1cccc2cccc(C)c12 | 49.8371
* CCc1cccc2ccccc12 | 44.6047

====

Test system: zebrafish larvae, 120 hpf
Assay: Larval photomotor response (LPR) assay after vial exposure
Assay type: in vivo, Danio rerio
Conditions: LPR, period dark, round 1, conc 25
The following compounds are listed with their measured fold_change values.
outcomeMeasure: fold_change

* CCc1cccc2ccccc12 | -0.1629
* Cc1cccc2ccccc12 | -0.8382
* Cc1cc2ccccc2cc1C | -0.9852
* Cc1cccc2cccc(C)c12 | -0.4588

====

System: early life stage zebrafish (Danio rerio) embryos
Assay: Developmental toxicity morphology screen, sealed rotating vial exposure
Assay type: in vivo
Conditions: Fig. 2; nominal concentration
outcomeMeasure: BMC50 MO24 (mortality at 24 hpf)

• Cc1ccc(C)c2ccccc12 = 30.4 µM
• Cc1cc(C)c2c(C)cccc2c1 = 25.7 µM
• Cc1ccc2c(C)cccc2c1 = 46.6 µM
• Cc1ccc(C)c2c(C)cccc12 = 27.7 µM
• Cc1cccc2c(C)cccc12 = no MO24 BMC50
• CC(C)(C)c1ccc2ccc(C(C)(C)C)cc2c1 = no MO24 BMC50
• Cc1cccc2cccc(C)c12 = 49.8 µM
• CCc1cccc2ccccc12 = 44.6 µM
• CCc1ccc2ccccc2c1 = 47.1 µM
• CCc1ccc2cc(CC)ccc2c1 = 38.1 µM

====

Test system: zebrafish larvae, 120 hpf
Assay: Larval photomotor response (LPR) assay after vial exposure
Format: in vivo, Danio rerio
Settings: LPR, period dark, round 2, conc 20
# fold_change listing for each entry below
outcomeMeasure: fold_change

- Cc1cc(C)c2c(C)cccc2c1 [2,4,5-trimethylnaphthalene]: -0.2326
- Cc1cc2cccc(C)c2cc1C [1,6,7-trimethylnaphthalene]: -0.09002
- CC(C)c1ccc2ccccc2c1 [2-isopropylnaphthalene]: -1.899
- Cc1ccc(C)c2c(C)cccc12 [1,4,5-trimethylnaphthalene]: 0.4872

====

System: zebrafish larvae, 120 hpf
Experiment: Larval photomotor response (LPR) assay after vial exposure
Assay type: in vivo, Danio rerio
Conditions: LPR, period light, round 1, conc 12.5
outcomeMeasure: fold_change

- Cc1ccc2ccc(C)cc2c1 [2,7-dimethylnaphthalene]: 1.067
- CCCCc1ccc2ccccc2c1 [2-butylnaphthalene]: 0.432
- Cc1ccc(C)c2c(C)cccc12 [1,4,5-trimethylnaphthalene]: 0.5316
- CC(C)c1ccc2ccccc2c1 [2-isopropylnaphthalene]: 1.277
- CC(C)c1ccc2cc(C(C)C)ccc2c1 [2,6-diisopropylnaphthalene]: -0.05494
- CCc1cccc2ccccc12 [1-ethylnaphthalene]: -0.744
- Cc1cc2ccccc2cc1C [2,3-dimethylnaphthalene]: -1.16
- CCc1ccc2cc(CC)ccc2c1 [2,6-diethylnaphthalene]: 0.2476
- Cc1cc(C)c2c(C)cccc2c1 [2,4,5-trimethylnaphthalene]: 0.215
- CCc1ccc2ccccc2c1 [2-ethylnaphthalene]: 0.3434
- Cc1cc2c(C)ccc(C)c2cc1C [1,4,6,7-tetramethylnaphthalene]: -0.2213

====

# key: entry, value: fold_change
Tested on: zebrafish larvae, 120 hpf
Test: Larval photomotor response (LPR) assay after vial exposure
Type: in vivo, Danio rerio
Details: LPR, period light, round 2, conc 30
outcomeMeasure: fold_change

- Cc1cccc2cccc(C)c12 [1,8-dimethylnaphthalene]: -0.235
- Cc1cccc2c(C)cccc12 [1,5-dimethylnaphthalene]: 0.3918
- CCc1ccc2ccccc2c1 [2-ethylnaphthalene]: 0.3708
- CCc1cccc2ccccc12 [1-ethylnaphthalene]: 0.3971

====

Test system: early life stage zebrafish (Danio rerio) embryos
Assay: Developmental toxicity morphology screen, sealed rotating vial exposure
Format: in vivo
Details: endpoint MORT; upper limit of benchmark dose
outcomeMeasure: bmdU, MORT

* CC(C)(C)c1ccc2ccc(C(C)(C)C)cc2c1 | 51.9197
* CC(C)c1ccc2ccccc2c1 | 26.3204
* CCc1ccc2ccccc2c1 | 46.3328
* CCCCc1ccc2ccccc2c1 | 36.5916

====

# BMC50 CRAN (craniofacial malformation at 120 hpf) per entry
System: early life stage zebrafish (Danio rerio) embryos
Assay: Developmental toxicity morphology screen, sealed rotating vial exposure
Assay type: in vivo
Conditions: Fig. 2; nominal concentration
outcomeMeasure: BMC50 CRAN (craniofacial malformation at 120 hpf)

- CCc1ccc2ccccc2c1: 45.7 µM
- CCc1cccc2ccccc12: 46.3 µM
- Cc1cc(C)c2c(C)cccc2c1: 24.8 µM
- Cc1cc2cccc(C)c2cc1C: 28.2 µM
- Cc1cccc2c(C)cccc12: 48.3 µM
- Cc1ccc2c(C)cccc2c1: 42.5 µM
- CCCCc1ccc2ccccc2c1: 32.3 µM
- Cc1cc2c(C)ccc(C)c2cc1C: 23.9 µM

====

Tested on: early life stage zebrafish (Danio rerio) embryos
Experiment: Developmental toxicity morphology screen, sealed rotating vial exposure
Format: in vivo
Details: Fig. 2; nominal concentration
// values below are reported BMC50 EDEM (pericardial and/or yolk sac edema at 120 hpf)
outcomeMeasure: BMC50 EDEM (pericardial and/or yolk sac edema at 120 hpf) (µM)

* Cc1cc2cccc(C)c2cc1C [1,6,7-trimethylnaphthalene] | 34.7
* CCc1ccc2ccccc2c1 [2-ethylnaphthalene] | 42.3
* CC(C)(C)c1ccc2ccc(C(C)(C)C)cc2c1 [2,7-di-tert-butylnaphthalene] | 33.6
* Cc1cc2c(C)ccc(C)c2cc1C [1,4,6,7-tetramethylnaphthalene] | 22.5
* Cc1cccc2c(C)cccc12 [1,5-dimethylnaphthalene] | 47.8
* CCCCc1ccc2ccccc2c1 [2-butylnaphthalene] | 37.1
* Cc1ccc2c(C)cccc2c1 [1,6-dimethylnaphthalene] | 46

====

Tested on: early life stage zebrafish (Danio rerio) embryos
Experiment: Developmental toxicity morphology screen, sealed rotating vial exposure
Format: in vivo
Design: unit not given here
Details: benchmark dose; endpoint MORT
Entries annotated with measured bmd, MORT
outcomeMeasure: bmd, MORT

• Cc1cc2c(C)ccc(C)c2cc1C = 29.3744
• CCc1cccc2ccccc12 = 41.9285
• Cc1cccc2cccc(C)c12 = 48.678
• CCc1ccc2cc(CC)ccc2c1 = 39.1942
• Cc1ccc(C)c2ccccc12 = 28.3398

====

System: zebrafish larvae, 120 hpf
Assay: Larval photomotor response (LPR) assay after vial exposure
Format: in vivo, Danio rerio
Conditions: LPR, period light, round 1, conc 12.5
# note: exactly 0.6 is not below, so it is Not met; use Met for fold_change strictly under it

• Cc1ccc2cc(C)ccc2c1 = Met
• Cc1ccc2cccc(C)c2c1 = Met
• Cc1cccc2c(C)cccc12 = Not met
• Cc1cccc2cccc(C)c12 = Met
• Cc1ccc2c(C)c(C)ccc2c1C = Not met
• Cc1ccc2ccccc2c1 = Not met
• Cc1ccc(C)c2ccccc12 = Not met
• Cc1cccc2ccccc12 = Met
• Cc1cc2cccc(C)c2cc1C = Met

====

Tested on: early life stage zebrafish (Danio rerio) embryos
Experiment: Developmental toxicity morphology screen, sealed rotating vial exposure
Assay type: in vivo
Design: unit not given here
Details: benchmark dose; morphology endpoint ANY_ (any effect)
Below, each entry is listed alongside its reported bmd, ANY_.
outcomeMeasure: bmd, ANY_

* Cc1ccc2cccc(C)c2c1 | 20.0865
* Cc1cc2ccccc2cc1C | 46.5587
* Cc1cccc2cccc(C)c12 | 41.1508
* Cc1ccc(C)c2c(C)cccc12 | 19.7402
* Cc1cc(C)c2c(C)cccc2c1 | 22.0373

====

Form field: fold_change (one value per entry).
System: zebrafish larvae, 120 hpf
Test: Larval photomotor response (LPR) assay after vial exposure
Assay type: in vivo, Danio rerio
Conditions: LPR, period dark, round 1, conc 3.125
outcomeMeasure: fold_change

- Cc1ccc2ccc(C)cc2c1 [2,7-dimethylnaphthalene]: 0.1561
- Cc1ccc2cccc(C)c2c1 [1,7-dimethylnaphthalene]: -0.2153
- Cc1cccc2ccccc12 [1-methylnaphthalene]: -0.2838
- Cc1cccc2c(C)cccc12 [1,5-dimethylnaphthalene]: 0.2385
- CC(C)(C)c1ccc2ccc(C(C)(C)C)cc2c1 [2,7-di-tert-butylnaphthalene]: -0.2175
- Cc1cc2cccc(C)c2cc1C [1,6,7-trimethylnaphthalene]: -0.2752
- CCc1ccc2cc(CC)ccc2c1 [2,6-diethylnaphthalene]: 0.178
- Cc1cc2c(C)ccc(C)c2cc1C [1,4,6,7-tetramethylnaphthalene]: 0.4047
- CC(C)c1ccc2cc(C(C)C)ccc2c1 [2,6-diisopropylnaphthalene]: -0.1214
- CCc1ccc2ccccc2c1 [2-ethylnaphthalene]: -0.0209
- Cc1ccc2cc(C)ccc2c1 [2,6-dimethylnaphthalene]: -0.2769
- CCc1cccc2ccccc12 [1-ethylnaphthalene]: 0.05526
- CCCCc1ccc2ccccc2c1 [2-butylnaphthalene]: -0.7788
- Cc1cc(C)c2c(C)cccc2c1 [2,4,5-trimethylnaphthalene]: -0.1188
- CC(C)c1ccc2ccccc2c1 [2-isopropylnaphthalene]: -0.04413
